These entries and their values trace back to PubChem BioAssay.

# subject.of.test: Homeobox protein Hox-A13 (Mus musculus)
# test.details: inhibitors of HoxA13-DNA binding, primary screen, biochemical, fluorescence polarization, labeled oligonucleotide (AID 1185)
# settings: 15 min, higher = more signal, called active from +8 up or from −8 down
For each of the compounds below, state its z-score.
Answer using only a numeral; do not append any unit.

Inquiry: Record request: z-score value, item O=C1[C@H]2[C@H]3[C@H](O)[C@H](O)CC(=NOCc4ccccc4)[C@H]3CC[C@H]2C(=O)N1c1cccc(Oc2ccccc2)c1
Reply text: -1.3

Inquiry: Record request: z-score value, item Cc1ccc(C2CC=C(C(=O)O)CN2S(=O)(=O)c2ccc(C)cc2)cc1 (centres undefined)
Reply text: -4.53

Inquiry: Record request: z-score value, item COc1ccccc1CN1C(=O)c2ccccc2[C@@H](C(=O)NCC(F)(F)F)[C@@H]1c1ccc(CO)cc1
Reply text: -2.99

Inquiry: Record request: z-score value, item CC[C@@H](c1ccccc1)n1c(=O)n2n(c1=O)[C@H]1[C@H](O)[C@@H]3O[C@@H]3C(=NOCC=C(C)CCC=C(C)C)[C@H]1CC2
Reply text: -3.96

----------
# test.details: small-molecule binders of probe aNOTCH2, primary screen, biochemical, small-molecule microarray, 635/667 nm fluorescence (AID 1121);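 note: score merges feature fluorescence read at 667 nm with its signal to noise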
# settings: higher = more signal
quantity.name: composite z-score
Answer using only a numeral; do not append any unit.

Inquiry: Record request: composite z-score value, item O=C1[C@H]2[C@H]3[C@H](O)[C@H](O)CC(=NO[C@@H]4O[C@H](CO)[C@@H](O)[C@H](O)[C@H]4O)[C@@H]3CC[C@H]2C(=O)N1c1ccc(F)cc1F
Reply text: -0.104

Inquiry: Record request: composite z-score value, item O=C1C[C@]2(c3ccc([N+](=O)[O-])cc3)C(=O)N(CCN3CCOCC3)c3cc(CO)ccc3[C@H]2N1CC12CC3CC(CC(C3)C1)C2
Reply text: -0.174

Inquiry: Record request: composite z-score value, item CCCNC(=O)OC[C@H]1O[C@H](CCON=C2[C@H]3CCn4c(=O)n(-c5ccccc5)c(=O)n4[C@H]3[C@H](O)[C@@H]3O[C@H]23)C=C[C@@H]1Oc1ccc(OC)cc1
Reply text: -0.0444

Inquiry: Record request: composite z-score value, item CN(C)CCCNC(=O)[C@@H]1c2ccccc2C(=O)N(Cc2cc(F)cc(C(F)(F)F)c2)[C@H]1c1ccc(CO)cc1
Reply text: -0.114

Inquiry: Record request: composite z-score value, item C=COC[C@H]1CN2[C@@H](CC[C@@H](C)[C@@H]2c2ccc(Br)cc2)C(=O)O1
Reply text: 0.0877

Inquiry: Record request: composite z-score value, item O=C1[C@H]2[C@H]3[C@H](O)[C@H](O)CC(=NO[C@@H]4O[C@H](CO)[C@@H](O)[C@H](O)[C@H]4O)[C@H]3CC[C@H]2C(=O)N1Cc1ccccc1
Reply text: -0.127

----------
# test.details: S. cerevisiae RM11-1a growth modifiers, primary screen, strain RM11-1a, OD600, basal, 24 h (AID 1177);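 note: cultures grown under basal conditions with no added stressor; test concentration not given here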
# settings: OD600, 24 h, higher = more signal, called active from +8 up or from −8 down
Calls of active or inactive are those of the source.
For each of the molecules below, state its z-score.

Inquiry: Record request: z-score value, item CO[C@H]1O[C@H](CO)[C@@H](OC(=O)Nc2ccc3c(c2)OCO3)[C@H](OC(=O)Nc2ccccc2-c2ccccc2)[C@@H]1OC(=O)Nc1ccccc1-c1ccccc1
Reply text: 2.33 (inactive)

Inquiry: Record request: z-score value, item CCc1cc2c(nc1CC)CCN(CCC(C)=NOC[C@@H](O)COCc1ccco1)C2
Reply text: -0.727 (inactive)

Inquiry: Record request: z-score value, item COC(=O)c1c(CC[C@@H](CO)NC(=O)N[C@H](Cc2ccccc2)Cn2cc(-c3ccccc3N)nn2)oc(C(C)=O)c1C(=O)OC
Reply text: -0.053 (inactive)

Inquiry: Record request: z-score value, item COCCCNC(=O)[C@]1(Cc2ccccc2)N=C(c2ccc(OCCCO)cc2)O[C@@H]1c1ccccc1
Reply text: -0.499 (inactive)
